Each record here notes measured activation at 10 µM.
# study_target: Full-length glucokinase (beta cell isoform) (Homo sapiens)
# Construct: Full-length glucokinase (beta cell isoform) was His-tagged at N-terminus; His tag (N); made in house
# Sequence (P35557 1-465): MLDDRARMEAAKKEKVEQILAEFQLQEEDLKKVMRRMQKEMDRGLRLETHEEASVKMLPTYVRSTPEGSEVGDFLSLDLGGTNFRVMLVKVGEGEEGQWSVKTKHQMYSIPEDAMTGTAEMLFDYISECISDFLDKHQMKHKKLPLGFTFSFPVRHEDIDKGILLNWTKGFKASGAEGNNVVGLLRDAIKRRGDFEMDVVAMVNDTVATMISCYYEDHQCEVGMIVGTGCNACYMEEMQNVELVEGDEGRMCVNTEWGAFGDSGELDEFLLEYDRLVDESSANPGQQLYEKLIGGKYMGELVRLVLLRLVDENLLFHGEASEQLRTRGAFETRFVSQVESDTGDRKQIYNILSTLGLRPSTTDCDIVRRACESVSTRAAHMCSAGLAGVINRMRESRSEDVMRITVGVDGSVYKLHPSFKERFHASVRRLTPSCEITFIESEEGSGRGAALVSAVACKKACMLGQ
# assay_protocol: Glucokinase biochemical assay (PK/LDH-coupled, NADH depletion at 340 nm): % activation, EC50, % max activation
# experimental_parameters: 10 uM compound; 5 mM glucose; % Activation=(Va/Vo−1)×100; read-out: % Activation at 10 uM
experimental_endpoint: activation at 10 µM (%)

INSERT INTO measurements (molecule, readout_number) VALUES
  ('COCC(C)Oc1cc(C(=O)Nc2ccn(C)n2)cc2c1CC(C)(C)O2 (stereo not shown)', 58.4),
  ('CC1(C)Cc2c(OCc3ccccc3)cc(C(=O)Nc3ccc(C(=O)O)cn3)cc2O1', 64.4),
  ('Cn1ccc(NC(=O)c2cc(Oc3cc(F)ccc3S(C)(=O)=O)c3c(c2)OC(C)(C)C3)n1', 79.7),
  ('CN(C)C(=O)c1ccc(Oc2cc(C(=O)Nc3ccncn3)cc3c2CC(C)(C)O3)cc1', 52),
  ('Cc1ccc(NC(=O)c2cc(Oc3ccc(S(=O)(=O)N(C)C)cc3)c3c(c2)OC(C)(C)C3)nc1', 135),
  ('Cc1ccc(NC(=O)c2cc(Oc3ccc(C(=O)N(C)C)c(F)c3)c3cc(C)oc3c2)nc1', 12.7),
  ('Cn1ccc(NC(=O)c2cc(Oc3ccc(C(=O)NCCF)c(F)c3)c3c(c2)OC(C)(C)C3)n1', 193),
  ('Cn1ccc(NC(=O)c2cc(Oc3cc(F)c(C(=O)N4CCC4)c(F)c3)c3c(c2)OC(C)(C)C3)n1', 139),
  ('Cn1ccc(NC(=O)c2cc(OCc3ccccc3)c3c(c2)OC(C(F)F)C3)n1 (stereo not shown)', 61.1),
  ('Cc1ccc(NC(=O)c2cc(Oc3ccc(S(C)(=O)=O)cc3)c3sc(C)cc3c2)nc1', 86.8),
  ('Cc1ccc(NC(=O)c2cc(OC(C)C)cc3oc(Br)cc23)nc1', 75.6),
  ('COCC1Cc2c(Oc3ccc(C(=O)N4CCC4)cc3)cc(C(=O)Nc3ccn(C)n3)cc2O1 (stereo not shown)', 83.9),
  ('CNC(=O)c1ncc(Oc2cc(C(=O)Nc3ccn(C)n3)cc3c2CC(C)(C)O3)cc1F', 194),
  ('Cc1ccc(NC(=O)c2cc(Oc3ccc(C(=O)N(C)C)cc3)c3occc3c2)nc1', 26),
  ('Cn1cc(C(=O)COc2cc(C(=O)Nc3ccn(C)n3)cc3c2CC(C)(C)O3)cn1', 70.1),
  ('Cc1ccc(NC(=O)c2cc(Oc3ccc(S(C)(=O)=O)cc3)c3oc(C)nc3c2)nc1', 66.1),
  ('CCS(=O)(=O)c1ccc(Oc2cc(C(=O)Nc3ccc(C)cn3)cc3c2CC(C)(C)O3)cc1', 137),
  ('Cn1ccc(NC(=O)c2cc(OC3CN(S(C)(=O)=O)C3)c3c(c2)OC(C)(C)C3)n1', 116),
  ('CC1Cc2c(cc(Oc3ccc(S(C)(=O)=O)cc3)cc2C(=O)Nc2ccccn2)O1 (stereo not shown)', 101),
  ('Cc1cc2c(Oc3ccc(S(C)(=O)=O)cc3)cc(C(=O)Nc3ccon3)cc2o1', 99.7),
  ('Cn1ccc(NC(=O)c2cc(Oc3ccc(S(C)(=O)=O)c(F)c3)c3c(c2)OC(C)(CO)C3)n1 (stereo not shown)', 188),
  ('CCOc1ccc(NC(=O)c2cc(Oc3ccc(S(C)(=O)=O)cc3)c3cc(C)oc3c2)nc1', 98.2);
